- PROCEDURE_SUMMARY: Metabolic stability of the compound in rat plasma assessed as parent compound remaining measured after 30 mins
- Type: ADME, cell-free
- RUN_PARAMETERS: read-out: Stability
# remaining at 0.5 h listing for each entry below

1. COc1ccc(S(=O)(=O)/C=C/c2ccccc2Cl)nc1    > 99%
2. COc1cccnc1S(=O)(=O)/C=C/c1ccccc1Cl    > 99%

--- query ---
I have this molecule here, COc1cccnc1[S+]([O-])/C=C/c1ccccc1C(F)(F)F (stereo not drawn) , and I need its recorded remaining at 0.5 h.
> 99%
